Quick reference: % Activity (Ex. 25 Reference Compound) of the listed items.
molecular target: human GPR120 (Homo sapiens, UniProt Q5NUL3); construct: Flag (DYKDDDDK) (N); host or cells: HEK293 cells co-expressing Gqi5; assay: Intracellular Ca2+ assay (FLIPR Calcium 4, Flexstation) in human GPR120 stable cell line; type: cell-based; details: % activity at 2.5 μM compared to the maximal activity of the compound of Example 25 at 2.5 μM; HEK293 cells co-expressing Gqi5
Numbers only; they are read as %.

CC1(C)Cc2cc(F)cc(COc3ccc(CCCC(=O)O)cc3)c2O1 [Example 160]	172.13
CC(Cc1ccc(OCc2cc(-n3cnnn3)cc3c2OC(C)(C)C3)cc1)C(=O)O (stereo not drawn) [Example 90]	75.86

Let us examine a further case.
Q. Please report the recorded % Activity (Ex. 25 Reference Compound) for CC1(C)Cc2cc(F)cc(COc3cc(Cl)c(CCC(=O)O)c(Cl)c3)c2O1 [Example 197] .
A. 151.44

----------
Molecular target: human GPR120 (Homo sapiens)
Construct: Flag (DYKDDDDK) (N); host or cells: HEK293 cells co-expressing Gqi5
Sequence (Q5NUL3 1-361): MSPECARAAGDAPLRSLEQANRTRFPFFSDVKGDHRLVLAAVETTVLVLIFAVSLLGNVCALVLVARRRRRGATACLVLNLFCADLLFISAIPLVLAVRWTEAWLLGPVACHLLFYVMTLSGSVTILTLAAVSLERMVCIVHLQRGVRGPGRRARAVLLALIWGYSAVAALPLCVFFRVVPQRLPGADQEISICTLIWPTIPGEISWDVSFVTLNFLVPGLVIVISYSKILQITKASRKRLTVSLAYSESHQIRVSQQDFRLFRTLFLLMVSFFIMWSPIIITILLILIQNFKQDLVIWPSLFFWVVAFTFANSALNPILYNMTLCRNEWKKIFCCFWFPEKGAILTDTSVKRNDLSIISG
Experiment: Intracellular Ca2+ assay (FLIPR Calcium 4, Flexstation) in human GPR120 stable cell line
Format: cell-based
Details: % activity at 2.5 μM compared to the maximal activity of the compound of Example 25 at 2.5 μM; HEK293 cells co-expressing Gqi5
Quick reference: % Activity (Ex. 25 Reference Compound) of the listed items.
Numbers only; they are read as %.

Q. Please report the recorded % Activity (Ex. 25 Reference Compound) for CC(Cc1ccc(OCc2cc(-c3ccc(Cl)cc3)cc3c2OC(C)(C)C3)cc1)C(=O)O (centres unmarked) .
A. 24

Q. Proceed to CC1(C)Cc2cc(F)cc(COc3c(F)cc(CC4CC4C(=O)O)cc3F)c2O1 (centres unmarked) [Example 184]
A. 97.04

Q. Proceed to `CC1(C)Cc2cc(F)cc(COc3ccc(CCC(=O)O)c4c3CCCC4)c2O1`
A. 114.48

Q. Proceed to CC(Cc1cc(F)c(OCc2cc(OCc3ccccc3)cc3c2OC(C)(C)C3)c(F)c1)C(=O)O (centres unmarked)
A. 51.55

Q. Proceed to `C[C@H](Cc1ccc(OCc2cc(Cl)cc3c2OC(C)(C)C3)c(F)c1)C(=O)O`
A. 143.3

Q. Proceed to `CC1(C)Cc2cc(F)cc(CCc3ccc(OCC(=O)O)cc3)c2O1`
A. 117.72

Q. Proceed to CC(Cc1ccc(OCc2cc(Cl)cc3c2OC2(CCCC2)C3)cc1)C(=O)O (centres unmarked)
A. 164.79

Q. Proceed to `CCc1cc(OCc2cccc3c2CC(C)(C)O3)ccc1CCC(=O)O`
A. 146.18
